# System: primary human skeletal myotubes
# experimental protocol: IRES screening, Gaussia luciferase from LNP-oRNA (Table 27)
# applied conditions: Gaussia luciferase luminescence in supernatant 48 hours after LNP-oRNA transfection, normalized to control (caprine kobuvirus IRES)
Mark label 1 only when [Mod] Fold Change Myo stays strictly below 0.2 Fold Change. Values equal to the cut-off are label 0.

Some solved cases for reference:
molecule	category
Cc1nccn1CCCN(CCCCCCCC(=O)OCCC(C)CCC(C)C)CCCCCCCC(=O)OCCC(C)CCC(C)C (centres unmarked) [Lipid 10a-102]	label 1
CC(C)CCC(C)CCOC(=O)CCCCCCCN(CCCCCCCC(=O)OCCC(C)CCC(C)C)CCCn1ccnc1 (centres unmarked) [Lipid 10a-100]	label 0
CCCCCCCCCOC(=O)CCCCCCCN(CCCCCCCC(=O)OC(CCCCCCCC)CCCCCCCC)CCC(C)n1ccnc1 (centres unmarked) [Lipid 10a-131]	label 1
CC(C)=CCC/C(C)=C/C(=O)OCCCCCCC(CCCCCCOC(=O)/C=C(\C)CCC=C(C)C)OC(=O)CCCn1ccnc1C (centres unmarked) [Lipid 10a-121]	label 0
CCCCC(C)CCC(=O)OCCCCCCN(CCCCCCOC(=O)CCC(C)CCCC)CCCn1ccnc1C (centres unmarked) [Lipid 10a-114]	label 1
CC(C)CCCC(C)CC(=O)OCCCCCCC(CCCCCCOC(=O)CC(C)CCCC(C)C)OC(=O)CCCn1ccnc1 (centres unmarked) [Lipid 10a-116]	label 1
CC(C)=CCCC(C)CC(=O)OCCCCCCN(CCCCCCOC(=O)CC(C)CCC=C(C)C)CCCn1ccnc1C (centres unmarked) [Lipid 10a-125]	label 0
CCCCCCCCC(CCCCCC)C(=O)OCCCCCCN(CCCCCCOC(=O)C(CCCCCC)CCCCCCCC)CCn1ccnc1 (centres unmarked) [Lipid 10a-129]	label 1
CCCCC(CC)CCC(=O)OCCCCCCC(CCCCCCOC(=O)CCC(CC)CCCC)OC(=O)CCCn1ccnc1C (centres unmarked) [Lipid 10a-111]	label 0
Cc1nccn1CCCN(CCCCCCCCC(=O)OCCC(C)CC(C)(C)C)CCCCCCCCC(=O)OCCC(C)CC(C)(C)C (centres unmarked) [Lipid 10a-106]	label 0

Task: Regarding CC(C)=CCCC(C)CC(=O)OCCCCCCC(CCCCCCOC(=O)CC(C)CCC=C(C)C)OC(=O)CCCn1ccnc1 (centres unmarked) [Lipid 10a-118] , kindly confirm whether its [Mod] Fold Change Myo is beneath 0.2 Fold Change.
Output: label 1

Task: Queued: CCCCC(C)CCC(=O)OCCCCCCC(CCCCCCOC(=O)CCC(C)CCCC)OC(=O)CCCn1ccnc1 (centres unmarked) [Lipid 10a-113]
Output: label 0

Task: Repeat for the following molecule: CC(C)CCCC(C)CC(=O)OCCCCCCN(CCCCCCOC(=O)CC(C)CCCC(C)C)CCCn1ccnc1 (centres unmarked) [Lipid 10a-122]
Output: label 0

Task: // next record CCCCC(C)CCC(=O)OCCCCCCN(CCCCCCOC(=O)CCC(C)CCCC)CCCn1ccnc1 (centres unmarked) [Lipid 10a-112]
Output: label 0

FYI, the data here is from patent US12297285B2.
